- Assay Procedure: Solubility tests in organic solvents
- Type: physicochemical
- Assay Context: chlorobenzene, 20° C.
Entries and their Solubility S in chlorobenzene (molar) values follow.

1. COc1ccc(-n2c3ccc(-n4c5ccc([Si](C(C)C)(C(C)C)C(C)C)cc5c5cc([Si](C(C)C)(C(C)C)C(C)C)ccc54)cc3c3cc(-n4c5ccc([Si](C(C)C)(C(C)C)C(C)C)cc5c5cc([Si](C(C)C)(C(C)C)C(C)C)ccc54)ccc32)cc1 = > 45 mM
2. CC(C)[Si](c1ccc2c(c1)c1ccccc1n2-c1ccc(C2(c3ccc(-n4c5ccccc5c5cc([Si](C(C)C)(C(C)C)C(C)C)ccc54)cc3)c3ccccc3-c3ccccc32)cc1)(C(C)C)C(C)C = > 59 mM

### Prompt Given the molecule `CC(C)[Si](c1ccc2c(c1)c1ccccc1n2-c1ccc2c(c1)c1cc(-n3c4ccccc4c4cc([Si](C(C)C)(C(C)C)C(C)C)ccc43)ccc1n2-c1ccc(F)cc1)(C(C)C)C(C)C` , write its reported Solubility S in chlorobenzene (molar).
### Response > 57 mM

----------
Catalogue of Solubility S in chlorobenzene readings, one per entry.
- Assay Procedure: Solubility tests in organic solvents
- Type: physicochemical
- Assay Context: chlorobenzene, 20° C., 1 ml solvent, magnetic stirring
- Experimental: The solubility tests were carried out at 20° C. by adding 1 ml of solvent to the suitable amount of compound powder in a sampling vial and under magnetic stirring.

1) CC(C)[Si](c1ccc2c(c1)c1ccccc1n2-c1ccc2c(c1)c1cc(-n3c4ccccc4c4cc([Si](C(C)C)(C(C)C)C(C)C)ccc43)ccc1n2-c1ccc(F)cc1)(C(C)C)C(C)C = > 51 mg/mL

### Prompt Query Solubility S in chlorobenzene for `CC(C)[Si](c1ccc2c(c1)c1cc([Si](C(C)C)(C(C)C)C(C)C)ccc1n2-c1ccc(C2(c3ccc(-n4c5ccc([Si](C(C)C)(C(C)C)C(C)C)cc5c5cc([Si](C(C)C)(C(C)C)C(C)C)ccc54)cc3)c3ccccc3-c3ccccc32)cc1)(C(C)C)C(C)C`
### Response > 54 mg/mL

### Prompt Fill in Solubility S in chlorobenzene for record `CC(C)[Si](c1ccc2c(c1)c1ccccc1n2-c1ccc(C2(c3ccc(-n4c5ccccc5c5cc([Si](C(C)C)(C(C)C)C(C)C)ccc54)cc3)c3ccccc3-c3ccccc32)cc1)(C(C)C)C(C)C`
### Response > 57 mg/mL

### Prompt Tell us which Solubility S in chlorobenzene value is on record for `COc1ccc(-n2c3ccc(-n4c5ccc([Si](C(C)C)(C(C)C)C(C)C)cc5c5cc([Si](C(C)C)(C(C)C)C(C)C)ccc54)cc3c3cc(-n4c5ccc([Si](C(C)C)(C(C)C)C(C)C)cc5c5cc([Si](C(C)C)(C(C)C)C(C)C)ccc54)ccc32)cc1`
### Response > 55 mg/mL

### Prompt Give Solubility S in chlorobenzene for `COc1ccc(-n2c3ccc(-n4c5ccccc5c5cc([Si](C(C)C)(C(C)C)C(C)C)ccc54)cc3c3cc(-n4c5ccccc5c5cc([Si](C(C)C)(C(C)C)C(C)C)ccc54)ccc32)cc1`
### Response > 56 mg/mL

----------
- Assay Procedure: Solubility tests in organic solvents
- Format: physicochemical
- Assay Context: chlorobenzene, 20° C.
Metric Name: Solubility S in chlorobenzene (molar)

1. CC(C)[Si](c1ccc2c(c1)c1cc([Si](C(C)C)(C(C)C)C(C)C)ccc1n2-c1ccc(C2(c3ccc(-n4c5ccc([Si](C(C)C)(C(C)C)C(C)C)cc5c5cc([Si](C(C)C)(C(C)C)C(C)C)ccc54)cc3)c3ccccc3-c3ccccc32)cc1)(C(C)C)C(C)C = > 42 mM

We now examine a further compound.
### Prompt Using the record for `COc1ccc(-n2c3ccc(-n4c5ccccc5c5cc([Si](C(C)C)(C(C)C)C(C)C)ccc54)cc3c3cc(-n4c5ccccc5c5cc([Si](C(C)C)(C(C)C)C(C)C)ccc54)ccc32)cc1` , state its measured Solubility S in chlorobenzene (molar).
### Response > 62 mM
